IC50 values, listed per item
Target: Plk1 PBD (Homo sapiens, UniProt P53350)
Construct: a plasmid encoding myc-tagged Plk1 PBD was purchased from Addgene; host or cells: HEK-293T
Sequence (P53350 326-603 limits assumed): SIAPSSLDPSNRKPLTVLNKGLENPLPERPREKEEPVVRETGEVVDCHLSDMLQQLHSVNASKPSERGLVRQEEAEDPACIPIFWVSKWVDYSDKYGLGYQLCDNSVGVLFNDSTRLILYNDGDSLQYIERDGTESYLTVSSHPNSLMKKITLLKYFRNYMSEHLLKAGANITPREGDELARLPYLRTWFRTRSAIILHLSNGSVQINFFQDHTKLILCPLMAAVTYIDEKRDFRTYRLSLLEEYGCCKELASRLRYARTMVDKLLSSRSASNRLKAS
Assay: Fluorescence polarization (FP) assay, isolated Plk1 PBD
Format: binding
Conditions: FP assay, average ± SEM
Starred links: 1 amine or outer side, 2 acyl side, 3 side chain; linkers in the order of their positions; H or OH if unused. Non-standard residues stand in square brackets, D forms with d. Residues, ends and D or L forms follow the SMILES beside them. X1 = O=C([C@H](Cc1cncn1CCCCc1cn(Cc2c(F)cccc2Oc2ccccc2)nn1)N[*:1])[*:2]; X3 = O=C([C@H](Cc1cncn1CCCCc1cn(Cc2ccc(F)c(Cl)c2)nn1)N[*:1])[*:2]; X4 = O=C([C@H](Cc1cncn1CCCCc1cn(Cc2ccc(F)cc2)nn1)N[*:1])[*:2]; X2 = O=C([C@H](Cc1cncn1CCCCc1cn(Cc2ccccc2)nn1)N[*:1])[*:2]; X5 = C#CCCCCn1cncc1C[C@H](N[*:1])C(=O)[*:2]; pT = C[C@@H](OP(=O)(O)O)[C@H](N)C(=O)O; Pra = C#CC[C@H](N)C(=O)O
Give me the value, and tack the unit on after it.

Before answering, review these 5 worked examples.
[ask] Give the measured IC50 of CC(=O)N1CCC[C@H]1C(=O)N[C@@H](CC(C)C)C(=O)N[C@@H](Cc1cncn1CCCCc1cn(Cc2c(F)cccc2Oc2ccccc2)nn1)C(=O)N[C@@H](CO)C(=O)N[C@H](C(N)=O)[C@@H](C)OP(=O)(O)O [Peptide 3d] (Ac-PL[X1]S[pT]-NH2) .
[reply] 25 nM

[ask] // next record C#CC[C@H](NC(=O)[C@H](CC(C)C)NC(=O)[C@@H]1CCCN1C(C)=O)C(=O)N[C@@H](CO)C(=O)N[C@H](C(N)=O)[C@@H](C)OP(=O)(O)O [Peptide 17] (Ac-PL[Pra]S[pT]-NH2)
[reply] 1000 nM

[ask] // next record CC(=O)N1CCC[C@H]1C(=O)N[C@@H](CC(C)C)C(=O)N[C@@H](Cc1cncn1CCCCc1cn(Cc2ccc(F)cc2)nn1)C(=O)N[C@@H](CO)C(=O)N[C@H](C(N)=O)[C@@H](C)OP(=O)(O)O [Peptide 3b] (Ac-PL[X4]S[pT]-NH2)
[reply] 100 nM

[ask] // next record CC(=O)N1CCC[C@H]1C(=O)N[C@@H](CC(C)C)C(=O)N[C@@H](Cc1cncn1CCCCc1cn(Cc2ccc(F)c(Cl)c2)nn1)C(=O)N[C@@H](CO)C(=O)N[C@H](C(N)=O)[C@@H](C)OP(=O)(O)O [Peptide 3c] (Ac-PL[X3]S[pT]-NH2)
[reply] 130 nM

[ask] // next record CC(=O)N1CCC[C@H]1C(=O)N[C@@H](CC(C)C)C(=O)N[C@@H](Cc1cncn1CCCCc1cn(Cc2ccccc2)nn1)C(=O)N[C@@H](CO)C(=O)N[C@H](C(N)=O)[C@@H](C)OP(=O)(O)O [Peptide 3a] (Ac-PL[X2]S[pT]-NH2)
[reply] 110 nM

***
[ask] Give the measured IC50 of C#CCCCCn1cncc1C[C@H](NC(=O)[C@H](CC(C)C)NC(=O)[C@@H]1CCCN1C(C)=O)C(=O)N[C@@H](CO)C(=O)N[C@H](C(N)=O)[C@@H](C)OP(=O)(O)O [Peptide 13] (Ac-PL[X5]S[pT]-NH2) .
[reply] 1100 nM

# credit: paper PMC6515314
